Hey, just so you know, these numbers are from patent US20200347143A1.

Target: T1, human OX40 on cells (human, UniProt P43489 29-277)
T1 sequence (looked up): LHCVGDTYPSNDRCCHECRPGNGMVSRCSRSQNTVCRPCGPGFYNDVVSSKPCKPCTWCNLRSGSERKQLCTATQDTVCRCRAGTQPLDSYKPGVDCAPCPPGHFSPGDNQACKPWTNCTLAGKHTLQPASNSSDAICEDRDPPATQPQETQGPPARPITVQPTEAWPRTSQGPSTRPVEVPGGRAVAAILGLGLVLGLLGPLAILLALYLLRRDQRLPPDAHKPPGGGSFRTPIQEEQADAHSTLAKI
Assay: cell-based or functional assay
MEASURE_NAME: % donor responder (>2), SEB assay, IL-2 release (%)
Quick note: give the figure in %, leave out the unit.

Looking up recombinant human OX40L-Fc protein (Fc fusion, not shown: a dimerising Fc or GST; small tags and cut ends) QVSHRYPRIQSIKVQFTEYKKEKGFILTSQKEDEIMKVQNNSVIINCDGFYLISLKGYFSQEVNISLHYQKDEEPLFQLKKVRSVNSLMVASLTYKDKVYLNVTTDNTSLDDFHVNGGELILIHQNPGEFCVL , I found its % donor responder (>2), SEB assay, IL-2 release recorded as 83
